Test system: HOP-62 NSCLC
Assay: NCI-60 one-dose screen, 48 h
Details: 10 µM unless noted
About 83,000 compounds went through this panel and 20% of them were active in at least one assay; those are over-represented in the sample as a whole. Activity calls are given as the source filed them. Rule for the calls: active = growth percent below 10; inactive = the rest.
The categories you may choose from are t (active), f (inactive)

Cc1cc(N=O)cc(C(C)(C)C)c1O
f

INPUT: Please let me know the test result on file for COc1ccc(O)c(-c2cc(-c3ccc(Cl)cc3)c(C#N)c(=O)[nH]2)c1 .
OUTPUT: f

INPUT: Try CCN1CCN(C(=O)[C@@]2(C)CC[C@]3(C)CC[C@]4(C)C(=CC(=O)[C@@H]5[C@@]6(C)CC[C@H](OC7C[C@@H](O)[C@@H](O)C(C)O7)C(C)(C)[C@@H]6CC[C@]54C)[C@@H]3C2)CC1 (some centres not stated) next.
OUTPUT: f

INPUT: Another: COc1ccc(C2CC(=O)c3c(nc4ccc(Cl)cc4c3N)C2)cc1 (configuration not stated)
OUTPUT: f

INPUT: // query: CCc1ccccc1NC(=O)c1sc2nc3c(cc2c1N)CCCC3
OUTPUT: f

INPUT: Thanks! And CC/C=C\C[C@H]1CC=C2C(=O)C=C[C@@H]2CC=CCCCC(=O)O[C@@H](CCCCC)CC=C2C(=O)C=C[C@@H]2CC=CCCCC(=O)O[C@@H](CCCCC)CC=C2C(=O)C=C[C@@H]2CC=CCCCC(=O)O[C@@H](CCCCC)CC=C2C(=O)C=C[C@@H]2CC=CCCCC(=O)O1 ?
OUTPUT: t

INPUT: Let us now turn to CC1(C)C(=O)/C(=C\c2cccnc2)C[C@]2(C)[C@H]3CC[C@@H]4[C@@H](C(=O)/C=C/c5ccncc5)CC[C@@]4(C)[C@]3(C)CC[C@@H]12
OUTPUT: t

---

System: COLO 205 colon
Assay: NCI-60 one-dose screen, 48 h (100 = growth as untreated, 0 = no growth, -100 = all killed)
Conditions: 10 µM unless noted
Compounds without any hit were thinned out: in the full panel of roughly 83,000, 20% have a hit.
assay endpoint: growth (%)
Numbers only here, please. The scale is %.

Below, each entry is followed by its recorded growth result.
Oc1ccc(CCC2CCCC(CCc3ccc(OCCF)cc3)N2)cc1 (configuration not stated)
97.2
O=C(O)c1cccc2c1C(=O)N(c1ccc3c(c1)Cc1ccccc1-3)C2=O
121
CC(C)=CCC[C@](C)(O)[C@H]1CC[C@]2(C)[C@@H]1CC[C@@H]1[C@@]3(C)C/C(=C/c4ccc(Br)cc4)C(=O)C(C)(C)[C@@H]3CC[C@]12C
99.1
COc1cc(-c2c(C#N)c(-c3cccs3)nc3c2c(-c2ccccc2)nn3-c2ccccc2)ccc1O
89.7

INPUT: Enter reported growth observed with COLO 205 colon for N#CC1=C(N)Oc2c(c(N)nn2-c2ccccc2)C1c1ccc(Cl)cc1Cl (configuration not stated)
OUTPUT: 120

INPUT: Input COc1ccc(-c2cc(/C=C/C(=O)c3ccc(N)cc3)[nH]n2)cc1
OUTPUT: 7.56

INPUT: What would you report for N#CC1=C(N)Oc2c(sc3c(F)cccc23)C1c1ccc(Cl)cc1 (configuration not stated) ?
OUTPUT: 38.4

INPUT: Field entry: COc1ccc(C2(Cl)c3ccccc3N(c3ccccc3)c3ccccc32)cc1
OUTPUT: -42.8

INPUT: Would you mind doing C/C(=N\NC(=O)C(C)SC(C)C(=O)N/N=C(\C)c1cccnc1)c1cccnc1 (configuration not stated) as well?
OUTPUT: 107

INPUT: # repeat for O=C1NC(c2ccc(Cl)c(Cl)c2)=C/C1=C\c1ccccc1
OUTPUT: 65.2

INPUT: Then this compound: Cc1cc(N(CCCNc2ccnc3cc(Cl)ccc23)Cc2ccco2)nc(Cl)n1
OUTPUT: 24.5

INPUT: What would you report for N#C/C(=C\c1ccc(-c2cccc(C(F)(F)F)c2)o1)c1nc(-c2ccco2)cs1 ?
OUTPUT: 118

INPUT: Can you check Cn1cc(-c2nc(-c3cn(C)c4ncccc34)cs2)c2ccccc21 next?
OUTPUT: 32.8

INPUT: Check Cn1cnc2c1c(=O)n(CCC(=O)Nc1ccc(F)cc1)c(=O)n2C too.
OUTPUT: 104

INPUT: Repeat for the following compound: Clc1ccc(Cn2cc(-c3nc4ccc(Br)nc4n3Cc3ccc(Cl)cc3)c3cccnc32)cc1
OUTPUT: 94.5

INPUT: Entry to check: C/C(=N/NC(N)=S)C(=O)O
OUTPUT: 119

INPUT: Same question, COc1cnc2c(c1)C(=O)c1c-2n(CCCNCCN2CCOCC2)c(=O)c2cc([N+](=O)[O-])ccc12 this time
OUTPUT: -2.78

INPUT: How about this compound: C[C@H]1[C@H]2C3=CC[C@@H]4[C@@]5(C)C/C(=C/c6ccco6)C(=O)C(C)(C)[C@@H]5CC[C@@]4(C)[C@]3(C)CC[C@@]2(C(=O)N2CCOCC2)CC[C@@H]1C
OUTPUT: 94.1
